Property: cell viability; scope: individual compounds
system: DLD1; experiment: cell viability (CellTiter-Glo) relative to plate median (fraction of plate median); higher = more viable cells; settings: 10 µM; treatment time 24 h; reporter: 7TFP
Counter-ions that a name gives are not always drawn.
MEASURED METRIC: cell viability

1. C#Cc1cccc(Nc2ncnc3cc(OCCOC)c(OCCO)cc23)c1 : 0.923
2. O=C1NC(=O)/C(=C/c2ccc(-c3ccc(F)cc3O)o2)S1 : 1.09
3. COc1cc2nccc(Oc3ccc(NC(=O)Nc4cc(C)on4)c(Cl)c3)c2cc1OC : 0.936
4. Clc1ccc(Nc2nnc(Cc3ccncc3)c3ccccc23)cc1 [Vatalanib dihydrochloride (PTK787)] : 0.968
5. Cc1csc(-c2nnc(Nc3ccc(Oc4ncccc4-c4ccnc(N)n4)cc3)c3ccccc23)c1 : 0.943
6. Nc1cc(C(F)(F)F)c(-c2cc(N3CCOCC3)nc(N3CCOCC3)n2)cn1 : 0.777
7. FC(F)(F)c1ccc(Nc2nc3ccc(Oc4ccnc(-c5ncc(C(F)(F)F)[nH]5)c4)cc3[nH]2)cc1 : 1.1
8. COc1ccc(-c2cc3c(C)nc(N)nc3n([C@H]3CC[C@H](OCCO)CC3)c2=O)cn1 : 0.889
